// data source = patent US20110045101A1

- Tested on: Puccinia recondita f. sp. tritici
- PROTOCOL_NOTES: Test I: wheat leaf rust on wheat seedlings, sprayed the day before inoculation, visual disease rating
- Assay type: in vivo
- EXPERIMENTAL_SETUP: 40 ppm (marked *); 100 = 100% disease control
- From the text: General protocol for preparing test suspensions for Tests A-J: The test compounds were first dissolved in acetone in an amount equal to 3% of the final volume and then suspended at the desired concentration (in ppm) in acetone and purified water (50/50 mix) containing 250 ppm of the surfactant Trem® 014 (polyhydric alcohol esters). […]
Marks after values point to notes of the source that are not given here.
MEASURED_PROPERTY: Test I disease control rating

Guide cases for Test I disease control rating, answers given:
Cc1nc(C)n(-c2ccc(Cl)c(F)c2)c1-c1c(F)ccc(F)c1Cl [compound 489]: 100* %
Cc1ccc(-n2c(Cl)nc(Br)c2-c2c(F)ccc(F)c2Cl)cc1 [compound 464]: 99* %

Report Test I disease control rating for every entry below.
1. COc1cc(F)c(-c2c(C)nc(C)n2-c2ccc(C)cc2)c(F)c1 [compound 521]
2. Cc1nc(Cl)n(-c2c(F)cccc2F)c1-c1ccc(Cl)cc1 [compound 466]
3. COc1cc(F)c(-n2c(Br)nc(C)c2-c2ccc(C)cc2)c(F)c1 [compound 525]
4. COc1cc(F)c(-n2cnc(C)c2-c2ccc(Cl)cc2)c(F)c1 [compound 688]
5. Cc1nc(Cl)c(-c2c(F)cccc2F)n1-c1ccc2ncccc2c1 [compound 468]
6. CCc1nc(Cl)c(-c2c(F)cccc2F)n1-c1ccc(Cl)cc1 [compound 108]
7. CC(C)c1nc(Cl)c(-c2c(F)cccc2F)n1-c1ccc(Cl)cc1 [compound 116]
8. COc1cc(F)c(-n2cnc(C)c2-c2ccc(C)cc2)c(F)c1 [compound 560]

98* %
93* %
100* %
0* %
91* %
98* %
0* %
79* %

For every item below, please supply its Test I disease control rating.
1. COc1cc(F)c(-n2c(Cl)nc(C)c2-c2ccc(C)cc2)c(F)c1 [compound 564]
2. CC(=O)Nc1ccc(-n2c(Cl)nc(Cl)c2-c2c(F)cccc2F)cc1 [compound 637]
3. Cc1ccc(-n2c(Br)nc(Br)c2-c2c(F)ccc(F)c2F)cc1 [compound 461]
4. Fc1cc(F)c(-n2cnc(Cl)c2-c2ccc(Cl)cc2)c(F)c1 [compound 98]
5. COCc1nc(Cl)n(-c2c(F)cccc2F)c1-c1ccc(Cl)cc1 [compound 467]
6. COc1cc(F)c(-c2c(Cl)nc(Cl)n2-c2ccc(C)c(Cl)c2)c(F)c1 [compound 502]

["100* %", "65* %", "97* %", "0* %", "71* %", "98* %"]

Dear colleague, could you send me Test I disease control rating for each of the items below? Thanks.
1. COc1cc(F)c(-c2c(C)ncn2-c2ccc(Cl)c(F)c2)c(F)c1 [compound 46]
2. Fc1cc(F)c(-n2c(Br)nc(Cl)c2-c2ccc(Cl)cc2)c(F)c1 [compound 131]

1: 26* %; 2: 0* %
